# Tested on: RARb homodimer (NR concentration 270 nM)
# assay explanation: PBM binding z-score (relative to random genomic background probes); higher = stronger binding; sequences stand for … in GC…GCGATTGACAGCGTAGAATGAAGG

>  <entry sequence>
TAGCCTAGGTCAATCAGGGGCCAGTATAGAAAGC

>  <PBM binding z-score>
3.1

$$$$
>  <entry sequence>
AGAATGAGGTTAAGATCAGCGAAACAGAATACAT

>  <PBM binding z-score>
0.64

$$$$
>  <entry sequence>
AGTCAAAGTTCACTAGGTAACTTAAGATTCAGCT

>  <PBM binding z-score>
3.53

$$$$
>  <entry sequence>
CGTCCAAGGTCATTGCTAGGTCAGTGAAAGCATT

>  <PBM binding z-score>
4.96

$$$$
>  <entry sequence>
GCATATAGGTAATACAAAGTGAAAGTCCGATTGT

>  <PBM binding z-score>
-0.658

$$$$
>  <entry sequence>
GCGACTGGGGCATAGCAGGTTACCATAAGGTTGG

>  <PBM binding z-score>
1.04

$$$$
>  <entry sequence>
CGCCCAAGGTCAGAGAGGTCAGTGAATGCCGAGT

>  <PBM binding z-score>
5.43

$$$$
>  <entry sequence>
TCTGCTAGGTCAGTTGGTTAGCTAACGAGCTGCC

>  <PBM binding z-score>
2.11

$$$$
>  <entry sequence>
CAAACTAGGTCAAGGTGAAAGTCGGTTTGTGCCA

>  <PBM binding z-score>
3.45

$$$$
>  <entry sequence>
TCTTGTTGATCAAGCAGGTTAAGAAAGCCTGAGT

>  <PBM binding z-score>
0.418

$$$$
>  <entry sequence>
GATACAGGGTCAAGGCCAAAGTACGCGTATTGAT

>  <PBM binding z-score>
3.82

$$$$
>  <entry sequence>
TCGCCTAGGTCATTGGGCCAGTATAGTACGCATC

>  <PBM binding z-score>
2.87

$$$$

* * *

Each entry below carries its recorded PBM binding z-score.
# System: PPARg:RXRa (NR concentration 180 nM, RXRa partner concentration 90 nM)
# assay explanation: PBM binding z-score (relative to random genomic background probes); higher = stronger binding; sequences stand for … in GC…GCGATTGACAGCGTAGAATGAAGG

>  <entry sequence>
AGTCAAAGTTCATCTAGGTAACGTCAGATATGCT

>  <PBM binding z-score>
6.42

$$$$
>  <entry sequence>
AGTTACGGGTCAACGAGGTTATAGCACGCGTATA

>  <PBM binding z-score>
5.57

$$$$
>  <entry sequence>
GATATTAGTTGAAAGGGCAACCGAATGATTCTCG

>  <PBM binding z-score>
2.9

$$$$
>  <entry sequence>
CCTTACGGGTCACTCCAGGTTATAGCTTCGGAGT

>  <PBM binding z-score>
3.22

$$$$
>  <entry sequence>
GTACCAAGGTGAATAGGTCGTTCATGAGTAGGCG

>  <PBM binding z-score>
1.4

$$$$
>  <entry sequence>
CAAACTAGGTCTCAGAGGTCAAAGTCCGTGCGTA

>  <PBM binding z-score>
4.67

$$$$

* * *

# Test system: PPARg:RXRa (NR concentration 180 nM, RXRa partner concentration 90 nM)
# assay explanation: PBM binding z-score (relative to random genomic background probes); higher = stronger binding; sequences stand for … in GC…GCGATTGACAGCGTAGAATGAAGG
Here, each record is paired with measured PBM binding z-score data.

>  <entry sequence>
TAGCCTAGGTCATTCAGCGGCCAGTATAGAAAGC

>  <PBM binding z-score>
2.09

$$$$
>  <entry sequence>
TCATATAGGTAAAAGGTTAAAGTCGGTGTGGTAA

>  <PBM binding z-score>
10.2

$$$$
>  <entry sequence>
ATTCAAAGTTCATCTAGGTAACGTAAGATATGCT

>  <PBM binding z-score>
4.18

$$$$
>  <entry sequence>
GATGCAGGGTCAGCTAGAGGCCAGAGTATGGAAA

>  <PBM binding z-score>
2.67

$$$$
>  <entry sequence>
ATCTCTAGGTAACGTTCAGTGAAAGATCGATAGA

>  <PBM binding z-score>
0.58

$$$$
>  <entry sequence>
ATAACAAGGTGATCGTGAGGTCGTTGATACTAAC

>  <PBM binding z-score>
0.967

$$$$
>  <entry sequence>
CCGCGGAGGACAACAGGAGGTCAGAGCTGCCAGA

>  <PBM binding z-score>
0.34

$$$$
>  <entry sequence>
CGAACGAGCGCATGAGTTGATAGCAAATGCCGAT

>  <PBM binding z-score>
0.405

$$$$
>  <entry sequence>
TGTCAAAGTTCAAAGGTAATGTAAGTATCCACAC

>  <PBM binding z-score>
8.55

$$$$
>  <entry sequence>
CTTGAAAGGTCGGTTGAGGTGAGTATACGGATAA

>  <PBM binding z-score>
0.512

$$$$
>  <entry sequence>
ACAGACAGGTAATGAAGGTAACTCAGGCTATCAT

>  <PBM binding z-score>
0.58

$$$$
>  <entry sequence>
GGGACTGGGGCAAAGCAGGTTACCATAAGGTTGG

>  <PBM binding z-score>
3.59

$$$$
>  <entry sequence>
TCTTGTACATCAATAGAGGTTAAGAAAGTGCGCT

>  <PBM binding z-score>
0.201

$$$$
>  <entry sequence>
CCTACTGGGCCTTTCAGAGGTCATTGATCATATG

>  <PBM binding z-score>
0.785

$$$$
>  <entry sequence>
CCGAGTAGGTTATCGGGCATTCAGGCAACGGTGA

>  <PBM binding z-score>
1.8

$$$$
>  <entry sequence>
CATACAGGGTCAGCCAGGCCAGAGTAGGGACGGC

>  <PBM binding z-score>
3.65

$$$$
>  <entry sequence>
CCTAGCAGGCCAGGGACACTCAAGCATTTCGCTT

>  <PBM binding z-score>
0.0348

$$$$
>  <entry sequence>
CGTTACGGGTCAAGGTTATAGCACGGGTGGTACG

>  <PBM binding z-score>
4.95

$$$$
>  <entry sequence>
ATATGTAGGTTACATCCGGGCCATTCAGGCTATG

>  <PBM binding z-score>
5.08

$$$$
>  <entry sequence>
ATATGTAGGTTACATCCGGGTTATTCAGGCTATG

>  <PBM binding z-score>
5.15

$$$$
>  <entry sequence>
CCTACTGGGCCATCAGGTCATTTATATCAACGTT

>  <PBM binding z-score>
2.76

$$$$
>  <entry sequence>
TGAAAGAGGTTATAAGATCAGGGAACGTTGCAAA

>  <PBM binding z-score>
1.11

$$$$
